- tested system: human Nav1.7 (Homo sapiens, UniProt Q15858)
- Construct: expressed in transfected cells
- Sequence (Q15858 whole entry): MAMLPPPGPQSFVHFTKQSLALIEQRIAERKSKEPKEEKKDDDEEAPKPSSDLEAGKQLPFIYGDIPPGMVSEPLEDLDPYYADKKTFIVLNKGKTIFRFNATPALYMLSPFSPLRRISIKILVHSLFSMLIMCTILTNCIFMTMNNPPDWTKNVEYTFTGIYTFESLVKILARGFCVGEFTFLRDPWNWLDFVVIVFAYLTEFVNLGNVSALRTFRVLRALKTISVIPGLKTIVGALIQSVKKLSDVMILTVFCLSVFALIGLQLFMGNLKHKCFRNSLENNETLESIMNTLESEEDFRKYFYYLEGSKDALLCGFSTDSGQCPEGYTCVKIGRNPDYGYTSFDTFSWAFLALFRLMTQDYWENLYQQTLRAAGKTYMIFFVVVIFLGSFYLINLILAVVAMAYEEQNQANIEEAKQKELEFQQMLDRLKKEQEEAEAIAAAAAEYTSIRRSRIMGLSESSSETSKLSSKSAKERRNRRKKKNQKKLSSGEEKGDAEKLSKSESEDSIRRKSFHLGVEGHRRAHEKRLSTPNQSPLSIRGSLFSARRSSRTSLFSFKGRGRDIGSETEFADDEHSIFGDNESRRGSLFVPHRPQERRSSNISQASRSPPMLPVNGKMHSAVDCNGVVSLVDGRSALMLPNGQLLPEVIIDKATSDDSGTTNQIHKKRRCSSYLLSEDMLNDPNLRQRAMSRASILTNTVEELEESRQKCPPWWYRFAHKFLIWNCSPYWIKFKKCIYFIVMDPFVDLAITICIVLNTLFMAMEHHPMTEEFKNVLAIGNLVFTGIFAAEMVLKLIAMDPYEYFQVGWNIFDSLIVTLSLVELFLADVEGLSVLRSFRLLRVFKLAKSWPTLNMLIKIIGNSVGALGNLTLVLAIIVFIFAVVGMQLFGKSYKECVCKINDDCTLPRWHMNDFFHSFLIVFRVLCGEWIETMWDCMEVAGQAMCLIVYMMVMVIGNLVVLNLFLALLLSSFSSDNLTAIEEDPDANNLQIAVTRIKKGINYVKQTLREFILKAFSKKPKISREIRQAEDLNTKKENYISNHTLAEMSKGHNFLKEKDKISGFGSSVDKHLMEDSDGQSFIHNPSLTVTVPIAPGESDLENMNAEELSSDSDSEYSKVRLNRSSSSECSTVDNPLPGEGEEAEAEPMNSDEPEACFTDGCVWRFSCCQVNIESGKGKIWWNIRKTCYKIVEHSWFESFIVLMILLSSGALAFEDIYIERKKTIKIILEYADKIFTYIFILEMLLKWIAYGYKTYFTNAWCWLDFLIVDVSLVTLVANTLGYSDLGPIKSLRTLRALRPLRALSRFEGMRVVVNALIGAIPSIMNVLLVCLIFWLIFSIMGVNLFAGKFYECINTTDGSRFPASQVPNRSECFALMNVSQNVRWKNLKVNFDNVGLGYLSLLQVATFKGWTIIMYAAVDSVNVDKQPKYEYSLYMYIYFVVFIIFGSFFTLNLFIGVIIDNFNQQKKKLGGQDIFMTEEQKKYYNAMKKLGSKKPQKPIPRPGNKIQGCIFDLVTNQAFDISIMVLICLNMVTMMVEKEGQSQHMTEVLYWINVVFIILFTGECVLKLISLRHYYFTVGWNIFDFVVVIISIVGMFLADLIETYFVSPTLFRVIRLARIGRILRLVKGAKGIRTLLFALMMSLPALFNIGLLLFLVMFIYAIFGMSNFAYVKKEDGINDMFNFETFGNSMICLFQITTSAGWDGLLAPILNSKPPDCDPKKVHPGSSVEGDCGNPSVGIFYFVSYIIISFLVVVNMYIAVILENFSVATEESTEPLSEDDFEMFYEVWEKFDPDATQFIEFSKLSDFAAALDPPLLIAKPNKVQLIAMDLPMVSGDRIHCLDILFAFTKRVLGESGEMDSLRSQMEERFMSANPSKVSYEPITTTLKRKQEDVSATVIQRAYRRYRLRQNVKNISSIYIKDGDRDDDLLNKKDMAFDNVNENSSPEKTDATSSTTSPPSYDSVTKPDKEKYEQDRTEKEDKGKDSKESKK
- Sequence (Q07699 19-218 partner): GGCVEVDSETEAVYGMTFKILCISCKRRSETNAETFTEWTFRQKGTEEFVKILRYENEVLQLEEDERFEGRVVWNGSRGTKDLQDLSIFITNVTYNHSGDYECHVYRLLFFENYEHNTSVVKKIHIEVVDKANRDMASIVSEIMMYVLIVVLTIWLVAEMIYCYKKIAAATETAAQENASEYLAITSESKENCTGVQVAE
- assay protocol: Assessment of Nav1.7 activity on PatchXpress (voltage dependence / slow inactivation parameters)
- Assay type: cell-based
- assay conditions: compound at 10 μM; relative to 0.2% DMSO vehicle control; PatchXpress
- From the text: The generation of a HEK 293F cell line stably expressing human Nav1.7/Navp1 was achieved by co-transfecting human SCN9A and human SCN1B cDNAs, subcloned into plasmid vectors, utilizing standard transfection techniques. […]
Kindly return condition met if reported hNav1.7: Shift in voltage dependence of inactivation (mV) Delta Vhalf is no lower than -7 mV; return condition not met if it is lower.

compound	label
N[C@H](c1ccccc1)c1nc2cc(C(F)(F)F)cc(C(F)(F)F)c2[nH]1	condition not met
CC(C)(C)OC(=O)N[C@H](Cc1cccc(C(F)(F)F)c1)C(=O)NCc1nc2ccc(Br)cc2[nH]1	condition met
CC(C)(C)OC(=O)N[C@H](Cc1cccc(C(F)(F)F)c1)C(=O)NCc1nc2ccc(-c3ccc(F)c(Cl)c3)cc2[nH]1	condition met
CC(C)CC(N)C(=O)N[C@H](C)COc1cc(C(F)(F)F)cc(C(F)(F)F)c1 (stereo partly drawn)	condition not met
N[C@@H](c1ccc(F)cc1)c1nc2cc(C(F)(F)F)cc(C(F)(F)F)c2[nH]1	condition not met
Cc1cccc(C)c1OCC(C)NC(=O)CC(=O)NC1CCNCC1 (stereo not drawn)	condition met
Cc1cccc(C)c1OCC(C)NC(=O)[C@@H](N)CC(C)C (stereo partly drawn)	condition not met
CN[C@H](CC(C)C)C(=O)NCCOc1cc(C(F)(F)F)cc(C(F)(F)F)c1	condition not met
N[C@H](Cc1cccc(C(F)(F)F)c1)C(=O)NCc1nc2c(C(F)(F)F)cc(C(F)(F)F)cc2[nH]1	condition met
Cc1cccc(C)c1OCC(C)NC(=O)[C@H](N)C(C)C (stereo partly drawn)	condition not met
O=C(CCc1nc2cc(C(F)(F)F)cc(C(F)(F)F)c2[nH]1)N1CCNCC1	condition not met
N[C@@H](c1ccc(Cl)cc1)c1nc2cc(C(F)(F)F)cc(C(F)(F)F)c2[nH]1	condition not met
CC(C)(CN1CCNCC1=O)c1nc2cc(C(F)(F)F)cc(C(F)(F)F)c2[nH]1	condition met
CN(Cc1nc2c(C(F)(F)F)cc(C(F)(F)F)cc2[nH]1)C(=O)CNC(C)(C)C	condition met
N[C@H]1CCCC[C@H]1C(=O)NCCOc1cc(C(F)(F)F)cc(C(F)(F)F)c1	condition not met
Cc1cccc(C)c1OCC(C)NC(=O)[C@@H]1CCCN1 (stereo partly drawn)	condition not met
CC(C)(C)OC(=O)N[C@H](Cc1cccc(C(F)(F)F)c1)C(=O)NCc1nc2c(C(F)(F)F)cc(C(F)(F)F)cc2[nH]1	condition met
O=C(Cc1nc2cc(F)cc(F)c2[nH]1)NC1CCNCC1	condition met
Cc1cccc(C)c1OCC(C)NC(=O)CN1CCNCC1=O (stereo not drawn)	condition met
CC(C)C[C@@H](N)C(=O)N[C@@H](C)COc1cc(C(F)(F)F)cc(C(F)(F)F)c1	condition not met
N[C@H](C(=O)NCCOc1cc(C(F)(F)F)cc(C(F)(F)F)c1)c1ccccc1	condition not met
O=C1CNCCN1CCCc1nc2cc(F)cc(F)c2[nH]1	condition not met
FC(F)(F)c1cc(C(F)(F)F)c2nc([C@H]3CCCCN3)[nH]c2c1	condition met
